Target: Vhr1 (UniProt P40522)
Sequence: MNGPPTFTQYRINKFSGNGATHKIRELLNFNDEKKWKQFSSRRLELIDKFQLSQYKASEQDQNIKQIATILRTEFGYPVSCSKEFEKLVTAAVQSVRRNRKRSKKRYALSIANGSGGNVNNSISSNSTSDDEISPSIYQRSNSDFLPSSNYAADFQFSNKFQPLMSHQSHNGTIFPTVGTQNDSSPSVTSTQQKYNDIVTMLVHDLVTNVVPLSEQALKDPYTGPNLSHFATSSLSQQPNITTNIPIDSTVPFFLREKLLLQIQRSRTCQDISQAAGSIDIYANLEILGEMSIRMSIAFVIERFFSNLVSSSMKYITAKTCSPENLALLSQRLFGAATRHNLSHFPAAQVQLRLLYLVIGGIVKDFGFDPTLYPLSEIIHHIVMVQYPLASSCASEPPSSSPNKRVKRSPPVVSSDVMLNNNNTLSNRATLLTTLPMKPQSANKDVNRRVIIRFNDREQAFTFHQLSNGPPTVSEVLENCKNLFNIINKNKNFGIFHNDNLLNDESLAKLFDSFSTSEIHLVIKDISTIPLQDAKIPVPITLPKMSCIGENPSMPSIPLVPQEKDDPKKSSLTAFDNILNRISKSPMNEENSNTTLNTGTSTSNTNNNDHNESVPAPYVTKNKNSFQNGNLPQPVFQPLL
Test: PBM E-score (8-mer binding enrichment) (E-score (-0.5 to 0.5)); higher = stronger / more preferred TF binding
Conditions: protein concentration: 200 nM; construct: GST-full length
Over roughly 33,000 sequences, “E-score (-0.5 to 0.5)” has its median near -0.012; the highest 2% begin near 0.27. The full list was thinned out, with the highest values kept by preference.
The following sequences are shown together with reported PBM E-score values.
Please reply with the number alone, leaving off any unit.

Some solved cases for reference:
AGGTGACG
-0.0476
GACTCAGA
0.308
GAGTATGA
0.228
AGAACACT
0.108
ACGTGACT
0.41

Turning to the following sequence.
query: # query: PBM E-score | item GACTCAGC | system: Vhr1 (UniProt P40522)
result: 0.404

* * *

Biological target: Vhr1 (UniProt P40522)
Sequence: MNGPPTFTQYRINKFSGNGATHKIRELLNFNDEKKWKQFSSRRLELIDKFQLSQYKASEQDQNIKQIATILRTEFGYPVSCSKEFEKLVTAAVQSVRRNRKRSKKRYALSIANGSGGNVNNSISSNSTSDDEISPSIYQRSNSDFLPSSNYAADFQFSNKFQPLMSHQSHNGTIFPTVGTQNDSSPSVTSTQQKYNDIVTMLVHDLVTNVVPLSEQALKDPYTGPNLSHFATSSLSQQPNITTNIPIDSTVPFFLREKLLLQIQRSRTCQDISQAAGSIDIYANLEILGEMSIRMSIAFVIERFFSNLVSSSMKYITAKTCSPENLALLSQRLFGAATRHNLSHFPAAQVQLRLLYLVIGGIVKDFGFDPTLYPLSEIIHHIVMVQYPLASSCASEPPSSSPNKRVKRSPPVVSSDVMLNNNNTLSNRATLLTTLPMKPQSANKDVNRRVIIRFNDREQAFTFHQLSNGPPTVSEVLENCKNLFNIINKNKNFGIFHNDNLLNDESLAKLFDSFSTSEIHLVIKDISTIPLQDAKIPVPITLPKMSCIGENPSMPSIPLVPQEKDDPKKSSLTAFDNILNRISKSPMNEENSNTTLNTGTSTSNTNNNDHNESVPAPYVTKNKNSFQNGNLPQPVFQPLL
Test: PBM E-score (8-mer binding enrichment) (E-score (-0.5 to 0.5)); higher = stronger / more preferred TF binding
Conditions: protein concentration: 200 nM; construct: GST-full length
Over roughly 33,000 sequences, “E-score (-0.5 to 0.5)” has its median near -0.012; the highest 2% begin near 0.27. The entries come from a sample that favours the highest values as a whole.
Metric: PBM E-score
Please reply with the number alone, leaving off any unit.

query: // query PBM E-score value for entry AAGAATGG
result: -0.12

query: // query PBM E-score value for entry ACACGACC
result: 0.109

query: // query PBM E-score value for entry AAGCACTA
result: -0.0763

query: // query PBM E-score value for entry ATGTATCA
result: 0.267

query: // query PBM E-score value for entry CCGCCAAC
result: 0.163

query: // query PBM E-score value for entry GCTAATCA
result: 0.262

query: // query PBM E-score value for entry ACACTAAA
result: 0.238
